FYI, the data here is from patent US20260028391A1.

# TARGET_OF_ASSAY: T1, RSV-B F (RSV B)
# T1 construct: also called RSV F B
# ASSAY_METHOD_TEXT: BLI
MEASURED_PARAMETER: Kd
Please state the value followed by its unit.

query: Any idea what its Kd is? The binder is MPK201-v4.1 (antibody, V domains shown) VH: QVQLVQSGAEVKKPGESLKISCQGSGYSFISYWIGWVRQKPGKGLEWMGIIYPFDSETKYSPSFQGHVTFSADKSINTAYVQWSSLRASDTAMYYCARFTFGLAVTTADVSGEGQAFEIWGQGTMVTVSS VL: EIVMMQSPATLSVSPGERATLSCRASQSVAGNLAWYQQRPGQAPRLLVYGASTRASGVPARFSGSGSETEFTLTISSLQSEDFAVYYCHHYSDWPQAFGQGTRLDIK
result: 0.552 nM

query: Given MPK176-v1.3 (antibody, V domains shown) VH: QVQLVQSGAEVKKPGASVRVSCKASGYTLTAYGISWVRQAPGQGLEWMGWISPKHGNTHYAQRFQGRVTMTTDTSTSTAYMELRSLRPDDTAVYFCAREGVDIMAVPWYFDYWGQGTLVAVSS VL: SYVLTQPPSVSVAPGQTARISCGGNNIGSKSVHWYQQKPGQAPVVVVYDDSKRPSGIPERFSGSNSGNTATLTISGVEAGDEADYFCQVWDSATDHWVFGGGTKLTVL , state its recorded Kd.
result: 0.0256 nM

query: Kd for MPK176-v4.3 (antibody, V domains shown) VH: QVQLVQSGAEVKKPGASVRVSCKASGYTLTAYGISWVRQAPGQGLEWMGWISPKHGSTHYAQRFQGRVTMTTDTSTSTAYMELRSLRPDDTAVYFCAREGVDIMAVPWYFDYWGQGTLVAVSS VL: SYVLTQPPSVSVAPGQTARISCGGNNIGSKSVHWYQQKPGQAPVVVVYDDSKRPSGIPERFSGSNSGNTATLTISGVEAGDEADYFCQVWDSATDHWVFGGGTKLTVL ?
result: 0.0117 nM

query: # Kd lookup, item MPK65-v2-v1.2 (antibody, V domains shown) VH: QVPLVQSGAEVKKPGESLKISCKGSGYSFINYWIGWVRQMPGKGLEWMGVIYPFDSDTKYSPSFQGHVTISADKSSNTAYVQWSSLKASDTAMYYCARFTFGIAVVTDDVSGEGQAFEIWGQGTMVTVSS VL: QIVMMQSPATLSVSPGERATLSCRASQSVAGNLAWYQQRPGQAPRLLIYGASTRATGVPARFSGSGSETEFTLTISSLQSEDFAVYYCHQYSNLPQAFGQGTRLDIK
result: 0.581 nM
